Give fold change of Histamine concentration for every item shown.
# Test system: Klebsiella aerogenes DSM 30053
# experiment-description: fold change of Histamine concentration vs plate DMSO controls (fold change (ratio)); higher = more amine produced, active = hit call of the paper (significant change in both replicates, either direction)
# experimental-parameters: incubation time: 27 h, anaerobic, 37 °C
Counter-ions that a name gives are not always drawn.

Would you mind telling me what fold change of Histamine concentration value was observed for C[C@H](CCC(=O)O)[C@H]1CC[C@H]2[C@@H]3[C@@H](O)C[C@@H]4C[C@H](O)CC[C@]4(C)[C@H]3CC[C@]12C [Urosiol] (20 µM) ?
0.998 (inactive)

For the compound shown here, CCCCCN(CCCCC)C(=O)C(CCC(=O)O)NC(=O)c1ccc(Cl)c(Cl)c1 (stereo not drawn) [Lorglumide sodium salt] (20 µM) , give the reported fold change of Histamine concentration.
0.987 (inactive)

Consider the compound COc1cc2nc(N3CCN(C(=O)C4COc5ccccc5O4)CC3)nc(N)c2cc1OC (stereo not drawn) [Doxazosin mesylate] (20 µM) and give its measured fold change of Histamine concentration.
1.01 (inactive)

Entry under review: CC(=O)[C@H]1CC[C@H]2[C@@H]3C[C@H](C)C4=CC(=O)CC[C@]4(C)[C@H]3[C@@H](O)C[C@]12C [Medrysone] (20 µM) . Reported fold change of Histamine concentration?
1.02 (inactive)

For Clc1ccc(C(c2ccccc2Cl)C(Cl)Cl)cc1 (stereo not drawn) [Mitotane] (20 µM) , what is its reported fold change of Histamine concentration?
1.01 (inactive)

GET /values?readout=fold change of Histamine concentration&item= CC(C)NNC(=O)c1ccncc1 [Iproniazide phosphate] (20 µM)
0.977 (inactive)

Which value of fold change of Histamine concentration has been reported for O=C(O)/C=C/c1ccc(Cn2ccnc2)cc1 [Ozagrel hydrochloride] (20 µM) in the records?
1.02 (inactive)

Form field: reported fold change of Histamine concentration of OC[C@H]1O[C@@H](O[C@@H]2[C@@H](CO)OC(O)(CO)[C@H]2O)[C@H](O)[C@@H](O)[C@H]1O (mixture of isomers) [Lactulose] (50 µM)
1.01 (inactive)
